Hello, the source for this data is patent US20240173377A1, in case you need it.

Target: HLA DRB1*0101 (human)
Test: HLA class II competition binding assay
quantity measured: IC50

binder="EEQYNSTYTVVSVLTVLHQD [SEQ ID NO 114]" value="19 nM"
